Data origin: ChEMBL document CHEMBL2331170

test system: DU-145; test: Cytotoxicity against human DU145 cells by MTT assay; type: functional, cell-based
Endpoint name: IC50 (nM)

>  <Compound>
CCCCC(=O)Oc1cc(/C=C/C(=O)c2ccc(OC)c3c2OC(C)(C)C=C3)ccc1OC

>  <Unit info>
nM

>  <Readout number>
210

$$$$
>  <Compound>
COc1cc2c(c(OC)c1OC)-c1ccc(OC)c(=O)cc1[C@@H](NC(C)=O)CC2 [COLCHICINE]

>  <Unit info>
nM

>  <Readout number>
300

$$$$
>  <Compound>
CCC(=O)Oc1cc(/C=C/C(=O)c2ccc(OC)c3c2OC(C)(C)C=C3)ccc1OC

>  <Unit info>
nM

>  <Readout number>
190

$$$$
>  <Compound>
CC(=O)O[C@H]1C(=O)[C@@]2(C)[C@H]([C@H](OC(=O)c3ccccc3)[C@]3(O)C[C@H](OC(=O)[C@H](O)[C@@H](NC(=O)c4ccccc4)c4ccccc4)C(C)=C1C3(C)C)[C@]1(OC(C)=O)CO[C@@H]1C[C@@H]2O [PACLITAXEL]

>  <Unit info>
nM

>  <Readout number>
30

$$$$
